# System: KM12
# experimentDescription: Antitumor activity against human KM12 cells assessed as cell growth inhibition at 10 uM incubated for 48 hrs by sulforhodamine B assay
# Type: functional
# conditionInfo: read-out: GI
Decide using inhibition of growth at 10 µM: a value greater than or equal to 50% is True, a smaller one is False.

{"columns": ["structureString", "categoryLabel"],
 "data": [
  ["Cc1ccc(-c2cn3nc(N)c(/N=N/c4ccc(S(N)(=O)=O)cc4)c3[nH]2)cc1", "False"],
  ["N#Cc1c(-c2ccc(F)cc2)nc2c(/N=N/c3ccc(S(N)(=O)=O)cc3)c(N)nn2c1N", "True"],
  ["Nc1nn2cc(-c3ccc(Br)cc3)[nH]c2c1/N=N/c1ccc(S(N)(=O)=O)cc1", "False"],
  ["N#Cc1c(-c2ccc(Cl)cc2)nc2c(/N=N/c3ccc(S(N)(=O)=O)cc3)c(N)nn2c1N", "True"],
  ["Nc1nn2cc(-c3ccccc3)[nH]c2c1/N=N/c1ccc(S(N)(=O)=O)cc1", "True"],
  ["Cc1ccc(-c2nc3c(/N=N/c4ccc(S(N)(=O)=O)cc4)c(N)nn3c(N)c2C#N)cc1", "True"],
  ["N#Cc1c(-c2ccc(Br)cc2)nc2c(/N=N/c3ccc(S(N)(=O)=O)cc3)c(N)nn2c1N", "False"],
  ["Nc1nn2cc(-c3ccc(F)cc3)[nH]c2c1/N=N/c1ccc(S(N)(=O)=O)cc1", "False"]
]}

---

# System: Malme-3M
# experimentDescription: Antitumor activity against human MALME-3M cells assessed as cell growth inhibition at 10 uM incubated for 48 hrs by sulforhodamine B assay
# Type: functional
# conditionInfo: read-out: GI
Classification field: enter yes (1) for inhibition of growth at 10 µM values not below 60%, no (0) for values below it.

{"columns": ["structureString", "categoryLabel"],
 "data": [
  ["Nc1nn2cc(-c3ccc(Br)cc3)[nH]c2c1/N=N/c1ccc(S(N)(=O)=O)cc1", "yes (1)"],
  ["N#Cc1c(-c2ccc(F)cc2)nc2c(/N=N/c3ccc(S(N)(=O)=O)cc3)c(N)nn2c1N", "no (0)"],
  ["Cc1ccc(-c2nc3c(/N=N/c4ccc(S(N)(=O)=O)cc4)c(N)nn3c(N)c2C#N)cc1", "no (0)"],
  ["Nc1nn2cc(-c3ccc(F)cc3)[nH]c2c1/N=N/c1ccc(S(N)(=O)=O)cc1", "no (0)"],
  ["Cc1ccc(-c2cn3nc(N)c(/N=N/c4ccc(S(N)(=O)=O)cc4)c3[nH]2)cc1", "yes (1)"],
  ["N#Cc1c(-c2ccc(Br)cc2)nc2c(/N=N/c3ccc(S(N)(=O)=O)cc3)c(N)nn2c1N", "no (0)"],
  ["Nc1nn2cc(-c3ccccc3)[nH]c2c1/N=N/c1ccc(S(N)(=O)=O)cc1", "yes (1)"]
]}

---

# System: NCI-H23
# experimentDescription: Antitumor activity against human NCI-H23 cells assessed as cell growth inhibition at 10 uM incubated for 48 hrs by sulforhodamine B assay
# Assay type: functional
# conditionInfo: read-out: GI
measureName: inhibition of growth at 10 µM (%)

{"columns": ["structureString", "measureName", "observedResult"],
 "data": [
  ["Cc1ccc(-c2cn3nc(N)c(/N=N/c4ccc(S(N)(=O)=O)cc4)c3[nH]2)cc1", "inhibition of growth at 10 µM", 34],
  ["Nc1nn2cc(-c3ccccc3)[nH]c2c1/N=N/c1ccc(S(N)(=O)=O)cc1", "inhibition of growth at 10 µM", 54],
  ["N#Cc1c(-c2ccc(Br)cc2)nc2c(/N=N/c3ccc(S(N)(=O)=O)cc3)c(N)nn2c1N", "inhibition of growth at 10 µM", 36],
  ["Cc1ccc(-c2nc3c(/N=N/c4ccc(S(N)(=O)=O)cc4)c(N)nn3c(N)c2C#N)cc1", "inhibition of growth at 10 µM", 56],
  ["Nc1nn2cc(-c3ccc(Br)cc3)[nH]c2c1/N=N/c1ccc(S(N)(=O)=O)cc1", "inhibition of growth at 10 µM", 30]
]}

Hey, just so you know, these numbers are from ChEMBL document CHEMBL4680175.
